Provide the recorded MRT for the entries that follow.
# Assay Overview: Mean residence time in Homo sapiens (human) at 150 mg
# Assay type: ADME, organism-based
# Particulars: in vivo
Output spec: scalar in h, unitless text.

[in] Can you look up the measured MRT of CCO[C@@H]1O[C@@H]2O[C@]3(C)CC[C@H]4[C@H](C)CC[C@@H]([C@H]1C)[C@@]24OO3 for me?
[out] 19.6

[in] Same lookup for CCO[C@H]1O[C@@H]2O[C@@]3(C)CC[C@H]4[C@H](C)CC[C@@H]([C@H]1C)[C@@]24OO3 , please.
[out] 47.4

###

# Assay Overview: AUC (0 to infinity) in Rattus norvegicus Sprague-Dawley (rat) at 30 mg/kg, administered intramuscularly
# Type: ADME, organism-based, Plasma
# Design: time infinity, dose 30 mg/kg, route intramuscular
# Particulars: Sprague-Dawley, plasma, im
Endpoint: AUC(0-inf) (ng·h/mL)
Output spec: scalar in ng·h/mL, unitless text.

[in] Can you look up the measured AUC(0-inf) of CCO[C@H]1O[C@@H]2O[C@@]3(C)CC[C@H]4[C@H](C)CC[C@@H]([C@H]1C)[C@@]24OO3 for me?
[out] 407

###

Provide the recorded half-life for the entries that follow.
# Assay Overview: Elimination half life in Macaca mulatta (Rhesus monkey) at 7.5 mg/kg, administered intramuscularly
# Type: ADME, organism-based
# Design: dose 7.5 mg/kg, route intramuscular
# Particulars: in vivo, im, read-out: beta t1/2 (converted)
Output spec: scalar in min, unitless text.

[in] Can you look up the measured half-life of CCO[C@@H]1O[C@@H]2O[C@]3(C)CC[C@H]4[C@H](C)CC[C@@H]([C@H]1C)[C@@]24OO3 [ALPHA-ARTEETHER] for me?
[out] 402

[in] Same lookup for CCO[C@H]1O[C@@H]2O[C@@]3(C)CC[C@H]4[C@H](C)CC[C@@H]([C@H]1C)[C@@]24OO3 [ARTEMOTIL] , please.
[out] 1150

###

# Assay Overview: Cmax in Macaca mulatta (Rhesus monkey) at 50 mg/kg, po
# Assay type: ADME, organism-based
# Parameters: dose 50 mg/kg, route oral
# Particulars: in vivo
Endpoint: Cmax (ng/mL)
Output spec: scalar in ng/mL, unitless text.

[in] Can you look up the measured Cmax of CCO[C@H]1O[C@@H]2O[C@@]3(C)CC[C@H]4[C@H](C)CC[C@@H]([C@H]1C)[C@@]24OO3 for me?
[out] 1.7

[in] Same lookup for CCO[C@@H]1O[C@@H]2O[C@]3(C)CC[C@H]4[C@H](C)CC[C@@H]([C@H]1C)[C@@]24OO3 , please.
[out] 3.9

###

# Assay Overview: Tmax in Macaca mulatta (Rhesus monkey) at 7.5 mg/kg, administered intramuscularly
# Type: ADME, organism-based
# Design: dose 7.5 mg/kg, route intramuscular
# Particulars: in vivo, im
Endpoint: Tmax (h)
Output spec: scalar in h, unitless text.

[in] Can you look up the measured Tmax of CCO[C@@H]1O[C@@H]2O[C@]3(C)CC[C@H]4[C@H](C)CC[C@@H]([C@H]1C)[C@@]24OO3 for me?
[out] 1

[in] Same lookup for CCO[C@H]1O[C@@H]2O[C@@]3(C)CC[C@H]4[C@H](C)CC[C@@H]([C@H]1C)[C@@]24OO3 , please.
[out] 1.83

###

# Assay Overview: Clearance in Rattus norvegicus Sprague-Dawley (rat) at 30 mg/kg, administered intramuscularly
# Format: ADME, organism-based
# Set-up: dose 30 mg/kg, route intramuscular
# Particulars: Sprague-Dawley, in vivo, im
Endpoint: CL/F (mL/min/kg)
Output spec: scalar in mL/min/kg, unitless text.

[in] Can you look up the measured CL/F of CCO[C@H]1O[C@@H]2O[C@@]3(C)CC[C@H]4[C@H](C)CC[C@@H]([C@H]1C)[C@@]24OO3 [ARTEMOTIL] for me?
[out] 762

###

Provide the recorded Cmax for the entries that follow.
# Assay Overview: Cmax in Macaca mulatta (Rhesus monkey) at 7.5 mg/kg, administered intramuscularly
# Type: ADME, organism-based
# Set-up: dose 7.5 mg/kg, route intramuscular
# Particulars: in vivo, im
Number plus unit, in that order.

[in] Can you look up the measured Cmax of CCO[C@H]1O[C@@H]2O[C@@]3(C)CC[C@H]4[C@H](C)CC[C@@H]([C@H]1C)[C@@]24OO3 [ARTEMOTIL] for me?
[out] 45.2 ng/mL

[in] Same lookup for CCO[C@@H]1O[C@@H]2O[C@]3(C)CC[C@H]4[C@H](C)CC[C@@H]([C@H]1C)[C@@]24OO3 [ALPHA-ARTEETHER] , please.
[out] 96.7 ng/mL

###

# Assay Overview: Clearance in Rattus norvegicus Sprague-Dawley (rat) at 9 mg/kg, administered intramuscularly
# Type: ADME, organism-based
# Design: dose 9 mg/kg, route intramuscular
# Particulars: Sprague-Dawley, in vivo, im
Endpoint: CL/F (mL/min/kg)
Output spec: scalar in mL/min/kg, unitless text.

[in] Can you look up the measured CL/F of CCO[C@H]1O[C@@H]2O[C@@]3(C)CC[C@H]4[C@H](C)CC[C@@H]([C@H]1C)[C@@]24OO3 for me?
[out] 86.7

###

Provide the recorded MRT for the entries that follow.
# Assay Overview: Mean residence time in Rattus norvegicus Sprague-Dawley (rat) at 30 mg/kg, administered intramuscularly
# Format: ADME, organism-based
# Design: dose 30 mg/kg, route intramuscular
# Particulars: in vivo, im
Output spec: scalar in h, unitless text.

[in] Can you look up the measured MRT of CCO[C@H]1O[C@@H]2O[C@@]3(C)CC[C@H]4[C@H](C)CC[C@@H]([C@H]1C)[C@@]24OO3 for me?
[out] 44.2

[in] Same lookup for CCO[C@@H]1O[C@@H]2O[C@]3(C)CC[C@H]4[C@H](C)CC[C@@H]([C@H]1C)[C@@]24OO3 , please.
[out] 14.4

###

# Assay Overview: Clearance in Macaca mulatta (Rhesus monkey) at 4 mg/kg, iv
# Format: ADME, organism-based
# Design: dose 4 mg/kg, route intravenous
# Particulars: in vivo
Endpoint: clearance (mL/min/kg)
Output spec: scalar in mL/min/kg, unitless text.

[in] Can you look up the measured clearance of CCO[C@H]1O[C@@H]2O[C@@]3(C)CC[C@H]4[C@H](C)CC[C@@H]([C@H]1C)[C@@]24OO3 for me?
[out] 38.3

###

# Assay Overview: Cmax in Rattus norvegicus Sprague-Dawley (rat) at 17.5 mg/kg, administered intramuscularly
# Format: ADME, organism-based
# Design: dose 17.5 mg/kg, route intramuscular
# Particulars: in vivo, im
Endpoint: Cmax (ng/mL)
Output spec: scalar in ng/mL, unitless text.

[in] Can you look up the measured Cmax of CCO[C@@H]1O[C@@H]2O[C@]3(C)CC[C@H]4[C@H](C)CC[C@@H]([C@H]1C)[C@@]24OO3 [ALPHA-ARTEETHER] for me?
[out] 184

[in] Same lookup for CCO[C@H]1O[C@@H]2O[C@@]3(C)CC[C@H]4[C@H](C)CC[C@@H]([C@H]1C)[C@@]24OO3 [ARTEMOTIL] , please.
[out] 136

###

# Assay Overview: Clearance in Macaca mulatta (Rhesus monkey) at 7.5 mg/kg, administered intramuscularly
# Format: ADME, organism-based
# Design: dose 7.5 mg/kg, route intramuscular
# Particulars: in vivo, im
Endpoint: CL/F (mL/min/kg)
Output spec: scalar in mL/min/kg, unitless text.

[in] Can you look up the measured CL/F of CCO[C@H]1O[C@@H]2O[C@@]3(C)CC[C@H]4[C@H](C)CC[C@@H]([C@H]1C)[C@@]24OO3 [ARTEMOTIL] for me?
[out] 118

###

# Assay Overview: Clearance in Homo sapiens (human) at 150 mg
# Type: ADME, organism-based
# Particulars: in vivo
Provide the recorded clearance for the entries that follow.
Output spec: scalar in mL/min/kg, unitless text.

[in] Can you look up the measured clearance of CCO[C@@H]1O[C@@H]2O[C@]3(C)CC[C@H]4[C@H](C)CC[C@@H]([C@H]1C)[C@@]24OO3 [ALPHA-ARTEETHER] for me?
[out] 10

[in] Same lookup for CCO[C@H]1O[C@@H]2O[C@@]3(C)CC[C@H]4[C@H](C)CC[C@@H]([C@H]1C)[C@@]24OO3 [ARTEMOTIL] , please.
[out] 13.3

###

# Assay Overview: AUC (0 to infinity) in Rattus norvegicus Sprague-Dawley (rat) at 2 mg/kg, iv
# Format: ADME, organism-based, Plasma
# Design: time infinity, dose 2 mg/kg, route intravenous
# Particulars: Sprague-Dawley, plasma
Endpoint: AUC(0-inf) (ng·h/mL)
Output spec: scalar in ng·h/mL, unitless text.

[in] Can you look up the measured AUC(0-inf) of CCO[C@H]1O[C@@H]2O[C@@]3(C)CC[C@H]4[C@H](C)CC[C@@H]([C@H]1C)[C@@]24OO3 [ARTEMOTIL] for me?
[out] 185
